Reference for the values: patent EP4603105A1

System: human lung cancer strain NCI-H441
Assay type: cell-based
Where a SMILES comes first, the peptide text is derived from it. Bridges are numbered along the chain shown (N, C = ends). [ ]: non-standard residue; d: D form. The star is where a group is joined. hPhe(3,5-F2-4-CF3) = N[C@@H](CCc1cc(F)c(C(F)(F)F)c(F)c1)C(=O)O; hPhe(3-Cl-4-CF3) = N[C@@H](CCc1ccc(C(F)(F)F)c(Cl)c1)C(=O)O; NPrPhe(4-CF3) = CCCN[C@@H](Cc1ccc(C(F)(F)F)cc1)C(=O)O; NMeGly(cPent) = CN[C@H](C(=O)O)C1CCCC1; NMeD = CN[C@@H](CC(=O)O)C(=O)O; Ac4c(3-oxa) = NC1(C(=O)O)COC1; NMeL = CN[C@@H](CC(C)C)C(=O)O; Morpholide = C1CN(*)CCO1; NMeA = CN[C@@H](C)C(=O)O; Aze = O=C(O)[C@@H]1CCN1; Ac4c = NC1(C(=O)O)CCC1; Sar = CNCC(=O)O
quantityKind: pIC50
Just the number, please; pIC50 means minus log10 of the concentration in mol/L.

Input line: Requested field: pIC50. Item: CCCN1C(=O)[C@@H]2CCN2C(=O)CN(C)C(=O)[C@H]([C@@H](C)CC)NC(=O)[C@H](CC(C)C)N(C)C(=O)C[C@@H](C(=O)N2CCOCC2)N(C)C(=O)[C@H](C2CCCC2)N(C)C(=O)C2(COC2)NC(=O)[C@@H]2CCCN2C(=O)[C@H](CCc2cc(F)c(C(F)(F)F)c(F)c2)NC(=O)CN(C)C(=O)[C@@H]1Cc1ccc(C(F)(F)F)cc1 [PP0801] ([NMeL]I[Sar][Aze][NPrPhe(4-CF3)][Sar][hPhe(3,5-F2-4-CF3)]P[Ac4c(3-oxa)][NMeGly(cPent)][NMeD]-Morpholide; lactam N-11)
Output line: 7.54

Input line: Requested field: pIC50. Item: `CCO[C@@H]1C[C@H]2C(=O)N[C@]3(C)CCCCCC[C@@H](C(=O)N[C@@H]([C@@H](C)CC)C(=O)N(C)CC(=O)N(C)[C@H]4CCCCN(C4=O)[C@@H](Cc4ccc(C(F)(F)F)cc4)C(=O)N(C)CC(=O)N[C@@H](CCc4cc(F)c(C(F)(F)F)c(F)c4)C(=O)N2C1)N(C)C(=O)C[C@@H](C(=O)N1CCOCC1)N(C)C(=O)[C@H](C1CCCC1)N(C)C3=O`
Output line: 6.10

Input line: Requested field: pIC50. Item: CCCN1C(=O)CN(C)C(=O)CN(C)C(=O)[C@H]([C@@H](C)CC)NC(=O)[C@H](CC(C)C)N(C)C(=O)C[C@@H](C(=O)N2CCOCC2)N(C)C(=O)[C@H](C2CCCC2)N(C)C(=O)C2(CCC2)NC(=O)[C@H](C)N(C)C(=O)[C@H](CCc2ccc(C(F)(F)F)c(Cl)c2)NC(=O)CN(C)C(=O)[C@@H]1Cc1ccc(C(F)(F)F)cc1 [PP1916] ([NMeL]I[Sar][Sar][NPrPhe(4-CF3)][Sar][hPhe(3-Cl-4-CF3)][NMeA][Ac4c][NMeGly(cPent)][NMeD]-Morpholide; lactam N-11)
Output line: 7.77

Input line: Requested field: pIC50. Item: `CCO[C@@H]1C[C@H]2C(=O)NC3(CCC3)C(=O)N(C)[C@@H](C3CCCC3)C(=O)N(C)[C@H](C(=O)N3CCOCC3)CC(=O)N(C)[C@@H](CC(F)F)C(=O)N[C@@H]([C@@H](C)CC)C(=O)N(C)CC(=O)N(C)[C@H]3CCCCCN(C3=O)[C@@H](Cc3ccc(C(F)(F)F)cc3)C(=O)N(C)CC(=O)N[C@@H](CCc3cc(F)c(C(F)(F)F)c(F)c3)C(=O)N2C1`
Output line: 7.66

Input line: Requested field: pIC50. Item: `CC[C@H](C)[C@@H]1NC(=O)[C@H](CC(C)C)N(C)C(=O)C[C@@H](C(=O)N2CCOCC2)N(CC)C(=O)[C@H](C2CCCC2)N(C)C(=O)C2(CCC2)NC(=O)[C@@H]2[C@H](O)CCN2C(=O)[C@H](CCc2cc(F)c(C(F)(F)F)c(F)c2)NC(=O)CN(C)C(=O)[C@H](Cc2ccc(C(F)(F)F)cc2)N2CCCCC[C@@H](C2=O)N(C)C(=O)CN(C)C1=O`
Output line: 5.19

* * *

Biological target: GDP-bound KRAS wild-type protein (Homo sapiens, UniProt P01116)
Sequence (P01116 1-188 isoform P01116-2): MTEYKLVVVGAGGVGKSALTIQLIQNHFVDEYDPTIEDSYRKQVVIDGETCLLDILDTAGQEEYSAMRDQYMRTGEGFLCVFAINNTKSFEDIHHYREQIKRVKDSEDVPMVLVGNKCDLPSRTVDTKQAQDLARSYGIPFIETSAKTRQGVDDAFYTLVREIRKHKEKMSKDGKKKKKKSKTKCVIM
Assay: Binding to KRAS by surface plasmon resonance (SPR), dissociation constant KD
Conditions: Single Cycle Kinetics, 1:1 binding model
Method: Surface plasmon resonance was used to analyze the binding affinity of compounds for KRAS, NRAS, and HRAS. […] The resulting sensorgram was subjected to curve fitting based on a 1:1 binding model on Biacore Insight Evaluation Software or T200 Evaluation Software, and thereby the dissociation constant KD of each compound with respect to KRAS, NRAS, and HRAS was determined. […]
quantityKind: Kd (nM)
// units = nM; emit number, no label

Input line: Requested field: Kd. Item: `CCO[C@@H]1C[C@H]2C(=O)NC3(CCC3)C(=O)N(C)[C@@H](C(CC)CC)C(=O)N(C)[C@H](C(=O)N(C)C)CC(=O)N(C)[C@@H](CC)C(=O)N[C@@H]([C@@H](C)CC)C(=O)N(C)CC(=O)N(C)[C@H]3C/C=C\CCN(C3=O)[C@@H](Cc3ccc(C(F)(F)F)cc3)C(=O)N(C)CC(=O)N[C@@H](CCc3cc(F)c(Cl)c(F)c3)C(=O)N2C1`
Output line: 0.77

Input line: Requested field: Kd. Item: `CC[C@H](C)[C@@H]1NC(=O)[C@H](CC)N(C)C(=O)C[C@@H](C(=O)N(C)C)N(C)C(=O)[C@H](C2CCCC2)N(C)C(=O)C2(CCC2)N(C)C(=O)[C@@H]2C[C@@H](C)CN2C(=O)[C@H](CCc2cc(F)c(C(F)(F)F)c(F)c2)NC(=O)CN(C)C(=O)[C@H](Cc2ccc(C)cc2)N2CC/C=C\C[C@@H](C2=O)N(C)C(=O)CN(C)C1=O`
Output line: 0.071

* * *

Target: GDP-bound KRAS wild-type protein (Homo sapiens)
Assay: Binding to KRAS by surface plasmon resonance (SPR), dissociation constant KD
Settings: Single Cycle Kinetics
Experimental: Surface plasmon resonance was used to analyze the binding affinity of compounds for KRAS, NRAS, and HRAS. […] The resulting sensorgram was subjected to curve fitting based on a 1:1 binding model on Biacore Insight Evaluation Software or T200 Evaluation Software, and thereby the dissociation constant KD of each compound with respect to KRAS, NRAS, and HRAS was determined. […]
*1 amine or outer side, *2 acyl side, *3 side chain or, on linkers, in order; H or OH if unused. Where a SMILES comes first, the peptide text is derived from it. Bridges are numbered along the chain shown (N, C = ends). [ ]: non-standard residue; d: D form. The star is where a group is joined. hPhe(3,5-F2-4-CF3) = N[C@@H](CCc1cc(F)c(C(F)(F)F)c(F)c1)C(=O)O; NPrPhe(4-CF3) = CCCN[C@@H](Cc1ccc(C(F)(F)F)cc1)C(=O)O; NMeGly(cPent) = CN[C@H](C(=O)O)C1CCCC1; X7 = C[C@@](N[*:1])(C(=O)[*:2])C1CC1; NMeD = CN[C@@H](CC(=O)O)C(=O)O; NMeL = CN[C@@H](CC(C)C)C(=O)O; Morpholide = C1CN(*)CCO1; Aze = O=C(O)[C@@H]1CCN1; Sar = CNCC(=O)O
So I've got a bunch of molecules here, and I need their pKd values.
Just the number, please; pKd means minus log10 of the concentration in mol/L.

Input line: Requested field: pKd. Item: `C#CC[C@H]1C(=O)N[C@@H]([C@@H](C)CC)C(=O)N2CCC[C@H]2C(=O)N(C)[C@H]2C/C=C\CCN(C2=O)[C@@H](Cc2ccc(C)cc2)C(=O)N(C)CC(=O)N[C@@H](CCc2ccc(C(F)(F)F)c(Cl)c2)C(=O)N2C[C@H](OCC)C[C@H]2C(=O)N(C)C2(CCC2)C(=O)N(C)[C@@H](C2CCCC2)C(=O)N(C)[C@H](C(=O)N(C)C)CC(=O)N1C`
Output line: 10.00

Input line: Requested field: pKd. Item: `CCC[C@H]1C(=O)N[C@@H](C2CCCC2)C(=O)N(C)CC(=O)N(C)[C@H]2C/C=C\CCN(C2=O)[C@@H](Cc2ccc(C)cc2)C(=O)N(C)CC(=O)N[C@@H](CCc2ccc(C(F)(F)F)c(OC)c2)C(=O)N2CC3(CC3)C[C@H]2C(=O)N(C)C2(CCC2)C(=O)N(C)[C@@H](CC(C)(C)C)C(=O)N(C)[C@H](C(=O)N(C)C)CC(=O)N1C`
Output line: 10.43

Input line: Requested field: pKd. Item: `CCCO[C@@H]1C[C@H]2C(=O)NC3(CC(C)(C)C3)C(=O)N(C)[C@@H](C3CCCC3)C(=O)N(C)[C@H](C(=O)N(C)CC)CC(=O)N(C)[C@@H](COCC)C(=O)N[C@@H]([C@@H](C)CC)C(=O)N3C[C@@H](C)C[C@H]3C(=O)N(C)[C@H]3C/C=C\CCN(C3=O)[C@@H](Cc3ccc(C)cc3)C(=O)N(C)CC(=O)N[C@@H](CCc3ccc(C(F)(F)F)c(OC)c3)C(=O)N2C1`
Output line: 8.47

Input line: Requested field: pKd. Item: `CCCOC[C@H]1C(=O)N[C@@H]([C@@H](C)OCCC)C(=O)N(CCC)CC(=O)N(C)[C@H]2C/C=C\CCN(C2=O)[C@@H](Cc2ccc(C(F)F)cc2)C(=O)N(C)CC(=O)N[C@@H](CCc2cc(F)c(C(F)(F)F)c(F)c2)C(=O)N2C[C@H](OC(C)C)C[C@H]2C(=O)N(C)C2(CCC2)C(=O)N(C)[C@@H](C(CC)CC)C(=O)N(C)[C@H](C(=O)N(C)C)CC(=O)N1C`
Output line: 9.15

Input line: Requested field: pKd. Item: CCCN1C(=O)CN(C)C(=O)[C@@H]2CCN2C(=O)[C@H]([C@@H](C)CC)NC(=O)[C@H](CC(C)C)N(C)C(=O)C[C@@H](C(=O)N2CCOCC2)N(C)C(=O)[C@H](C2CCCC2)N(C)C(=O)[C@](C)(C2CC2)NC(=O)[C@@H]2CCCN2C(=O)[C@H](CCc2cc(F)c(C(F)(F)F)c(F)c2)NC(=O)CN(C)C(=O)[C@@H]1Cc1ccc(C(F)(F)F)cc1 [PP0772] ([NMeL]I[Aze][Sar][NPrPhe(4-CF3)][Sar][hPhe(3,5-F2-4-CF3)]P[X7][NMeGly(cPent)][NMeD]-Morpholide; lactam N-11)
Output line: 8.37
